From: patent US9915665

binders and their reported kon
System: human DLL4 (human) (UniProt Q9NR61)
Assay Name: Biacore (SPR), DVD-Ig and huDLL4
// note: answer is a bare numeric in M⁻¹ s⁻¹

# example entries with known answers
Binder	Measurement
h1A11.1-B9-S2-SS-Anti-VEGF DVD-Ig (bispecific antibody, part only; not given: anti-VEGF domains, h1A11.1 VL, constant regions, part only) heavy, part: EVQLVESGGGLVQPGGSLRLSCAASGFTFSHFPMAWVRQAPGKGLEWVASISSSDSTTNYRDSVKGRFTISRDNAKNSLYLQMNSLRAEDTAVYYCARGYYNSPFAYWGQGTLVTVSSASTKGP light, part: TVAAP	115000
h1A11.1-G7-S2-SS-Anti-VEGF DVD-Ig (bispecific antibody, part only; not given: anti-VEGF domains, h1A11.1 VL, constant regions, part only) heavy, part: EVQLVESGGGLVQPGGSLRLSCAASGFTFNHFPMAWVRQAPGKGLEWVATISSSDWTPYYRDSVKGRFTISRDNAKNSLYLQMNSLRAEDTAVYYCARGYYNSPFAYWGQGTLVTVSSASTKGP light, part: TVAAP	117000
h1A11.1-F7-S2-SS-Anti-VEGF DVD-Ig (bispecific antibody, part only; not given: anti-VEGF domains, h1A11.1 VL, constant regions, part only) heavy, part: EVQLVESGGGLVQPGGSLRLSCAASGFTFRHFPMTWVRQAPGKGLEWVASISSSDGTINYRDSVKGRFTISRDNAKNSLYLQMNSLRAEDTAVYYCARGYYNSPFAYWGQGTLVTVSSASTKGP light, part: TVAAP	570000

Turning now to a further record.
## Task Complete the entry with kon for h1A11.1-H3-S2-SS-Anti-VEGF DVD-Ig (bispecific antibody, part only; not given: anti-VEGF domains, h1A11.1 VL, constant regions, part only) heavy, part: EVQLVESGGGLVQPGGSLRLSCAASGFTFRNFPMAWVRQAPGKGLEWVASISSSDGTTNYRDSVKGRFTISRDNAKSSLYLQMNSLRAEDTAVYYCARGYYNSPFAYWGQGTLVTVSSASTKGP light, part: TVAAP
## Result 130000
